tested on: MST4
readout kind: Kd

Prompt: Recall the reported Kd of CSc1nn2c(=O)cc(N3CCOCC3)nc2n1Cc1cccc(C(F)(F)F)c1C when tested on MST4.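 Also: kd values determined as follow-up on hits from a single-replicate KINOMEscan panel screen.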
Response: > 10 µM

---

system: ACVR2A; settings: concentration: 1 μM, replicates: in singlicate; n = 1
As shown below, each of these compounds has a reported %Inh value.
Quick note: give the figure in %, leave out the unit.

| compound | output unit | %Inh |
| --- | --- | --- |
| CC(=O)Nc1nc2cnc(Nc3cc(NC(=O)c4cccc(CCC#N)c4)ccc3C)nc2s1 | % | 0 |
| Cc1ccc(NC(=O)Nc2cc(C(C)(C)C)nn2-c2ccccc2)cc1 [GSK1014915] | % | 6 |
| Cc1cccc(-c2nc(C)cc(Nc3ccncc3)n2)n1 [GSK257997] | % | 0 |
| Nc1nc(-c2nccs2)c(-c2ccnc3ccccc23)s1 [GW693542] | % | 0 |
| Cl.NC(=O)c1cccc(Nc2nccc(Nc3ccc(Oc4cccc(Cl)c4)c(Cl)c3)n2)c1 [GW659008] | % | 0 |
| COc1ccc(CNC(=O)NC2CCN(c3ccnc(Nc4cc(OC)c(OC)c(OC)c4)n3)C2)cc1 (stereo not drawn) [GSK1379748] | % | 0 |
| Cc1cccc(-c2nc(Nc3ccc4[nH]ncc4c3)c3ccccc3n2)n1 [GW857175] | % | 0 |
| Cc1nnc(-c2ccc3occ(-c4ccc(S(C)=O)cc4)c3c2)[nH]1 (stereo not drawn) | % | 23 |

Prompt: Recall the reported %Inh of CN(C)CCN(C)C(=O)c1cc(-c2ccncc2)c(-c2ccc(Cl)c(O)c2)o1.Cl.Cl [SB-710397] when tested on ACVR2A.
Response: 0

Prompt: Recall the reported %Inh of COC(=O)c1c(-c2ccccc2)c2cc(C(=O)O)ccc2c(=O)n1Cc1ccccc1 when tested on ACVR2A.
Response: 36

Prompt: Recall the reported %Inh of CCCc1ccc(S(=O)(=O)NC2CCN(c3ccnc(Nc4ccc(F)cc4)n3)C2)cc1 (stereo not drawn) [GSK1379715] when tested on ACVR2A.
Response: 0

Prompt: Recall the reported %Inh of Fc1cccc(COc2nnc(-c3ccc4c(c3)CCO4)o2)c1 when tested on ACVR2A.
Response: 0

Prompt: Recall the reported %Inh of Cl.O=C(Nc1cccc(-c2nn3ncccc3c2-c2ccnc(Nc3cccnc3)n2)c1)c1c(F)cccc1F [GSK312879] when tested on ACVR2A.
Response: 0

Prompt: Recall the reported %Inh of COC(=O)c1c(-c2ccccc2)c2cc(OC)ccc2c(=O)n1Cc1ccccc1 when tested on ACVR2A.
Response: 0

Prompt: Recall the reported %Inh of O=C(Nc1n[nH]c2nc(-c3nccs3)c(Br)cc12)C1CCCC1 [SB-742609] when tested on ACVR2A.
Response: 0

Prompt: Recall the reported %Inh of Cl.c1ccc(-c2n[nH]cc2-c2ccnc(-c3ccc(CN4CCOCC4)cc3)c2)nc1 [GW776245] when tested on ACVR2A.
Response: 11

Prompt: Recall the reported %Inh of O=C(Nc1ccc2c(c1)OCO2)NC1CCN(c2ccnc(Nc3ccc(F)cc3)n2)C1 (stereo not drawn) [GSK1379724] when tested on ACVR2A.
Response: 0

Prompt: Recall the reported %Inh of Cn1ccc2ncnc(Oc3ccc(NC(=O)Nc4ccccc4)cc3)c21 when tested on ACVR2A.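 Also: KINOMEscan kinase panel screen.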
Response: 0
